# Target system: T1, GST-MUPP1 PDZ domain 11 (Homo sapiens (Human)), O75970
# T1 chain: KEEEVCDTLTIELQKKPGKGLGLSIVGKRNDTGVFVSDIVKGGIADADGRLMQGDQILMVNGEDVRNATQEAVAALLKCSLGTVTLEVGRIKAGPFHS
# Test protocol: G assay titration, PDZ 5 ug/ml
Assay endpoint: Kd
Give the number first and the unit second.

Entry under test: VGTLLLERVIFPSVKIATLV (modifications not checked) [AdenoE4 typ9] . Its Kd was 100 nM
